Cited source: paper PMC10702309

# targetOrTestSystem: jack bean urease (Canavalia ensiformis)
# Sequence (P07374 whole entry, looked up): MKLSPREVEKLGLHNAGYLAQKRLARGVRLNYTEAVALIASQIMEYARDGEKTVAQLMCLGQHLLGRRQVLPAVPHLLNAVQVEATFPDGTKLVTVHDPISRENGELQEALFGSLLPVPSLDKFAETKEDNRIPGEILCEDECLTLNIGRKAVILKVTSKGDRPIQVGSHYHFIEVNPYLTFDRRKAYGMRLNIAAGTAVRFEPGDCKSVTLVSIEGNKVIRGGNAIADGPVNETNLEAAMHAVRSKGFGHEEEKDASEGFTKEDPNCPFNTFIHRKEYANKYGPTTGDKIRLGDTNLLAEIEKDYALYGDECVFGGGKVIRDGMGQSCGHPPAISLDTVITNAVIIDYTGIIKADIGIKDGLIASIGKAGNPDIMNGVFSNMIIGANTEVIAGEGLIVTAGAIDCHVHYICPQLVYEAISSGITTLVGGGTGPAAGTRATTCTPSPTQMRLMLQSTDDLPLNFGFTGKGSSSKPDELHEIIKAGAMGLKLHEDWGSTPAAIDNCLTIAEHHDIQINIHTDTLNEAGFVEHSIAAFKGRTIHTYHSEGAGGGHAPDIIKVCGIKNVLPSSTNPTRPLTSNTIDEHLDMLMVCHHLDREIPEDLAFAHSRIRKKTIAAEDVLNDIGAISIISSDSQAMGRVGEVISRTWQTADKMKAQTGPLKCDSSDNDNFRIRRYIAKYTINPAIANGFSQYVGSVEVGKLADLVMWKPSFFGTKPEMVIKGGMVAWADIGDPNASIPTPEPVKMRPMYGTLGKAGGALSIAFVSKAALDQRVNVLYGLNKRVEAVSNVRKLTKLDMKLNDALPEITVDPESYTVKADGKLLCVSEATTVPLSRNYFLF
# measurementNotes: Antiurease assay
# Type: biochemical
pIC50: −log10 of the molar value.
parameterMeasured: pIC50

Consider the reported pIC50 for these molecules:
Cc1cccc(Nc2ccccc2C(=O)Nc2ccc(S(=O)(=O)Nc3onc(C)c3C)cc2)c1C [conjugate 13] :: 4.80
CC(=O)NS(=O)(=O)c1ccc(NC(=O)c2ccccc2Nc2cccc(C)c2C)cc1 [conjugate 18] :: 4.44
Cc1cccc(Nc2ccccc2C(=O)Nc2ccc(S(=O)(=O)Nc3ncccn3)cc2)c1C [conjugate 15] :: 5.10

P: CC(=O)NS(=O)(=O)c1ccc(NC(=O)Cc2ccccc2Nc2c(Cl)cccc2Cl)cc1 [conjugate 10]
Q: O=C(Cc1ccccc1Nc1c(Cl)cccc1Cl)Nc1ccc(S(=O)(=O)Nc2ncccn2)cc1 [conjugate 7]
Larger number for pIC50: P , or Q ? Write down the label attached to your selection.
P
